B1: Osa-1-4 twister ribozyme (parent)
chain: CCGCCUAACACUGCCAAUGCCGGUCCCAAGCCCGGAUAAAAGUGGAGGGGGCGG

# Variants of: B1
# PROCEDURE TEXT: self-cleavage, relative activity (ratio to wild type); higher = more cleavage; co-transcriptional

- CHANGES: "C20G G50C"
  self-cleavage: 0.06
- CHANGES: "A36U A41C"
  self-cleavage: 0.99
- CHANGES: "G19A G35A"
  self-cleavage: 0.83
- CHANGES: "A40C U43A"
  self-cleavage: 0.07
- CHANGES: "A16U A8G"
  self-cleavage: 0.62
- CHANGES: "C32G G48C"
  self-cleavage: 0.04
- CHANGES: "A7C G51C"
  self-cleavage: 0.02
- CHANGES: "G23U G42A"
  self-cleavage: 0.05
- CHANGES: "G13A G47A"
  self-cleavage: 0.04
- CHANGES: "G23U U12C"
  self-cleavage: 0.04
- CHANGES: "A40G G45A"
  self-cleavage: 0.09
- CHANGES: "A38U C32G"
  self-cleavage: 0.12
- CHANGES: "C32G G50U"
  self-cleavage: 0.11
- CHANGES: "C52A G51U"
  self-cleavage: 0.48
- CHANGES: "G19A G44A"
  self-cleavage: 0.23
- CHANGES: "A41C G48U"
  self-cleavage: 0.07
- CHANGES: "C31U G19A"
  self-cleavage: 0.14
- CHANGES: "A7G G49A"
  self-cleavage: 0.07
- CHANGES: "C26U C31U"
  self-cleavage: 0.16
- CHANGES: "A39U A46G"
  self-cleavage: 0.04
- CHANGES: "A41C C27G"
  self-cleavage: 0.06
- CHANGES: "A46C C9U"
  self-cleavage: 0.02
- CHANGES: "G49U U18C"
  self-cleavage: 0.16
- CHANGES: "A46U G44A"
  self-cleavage: 0.07
- CHANGES: "C21U C26U"
  self-cleavage: 0.88
- CHANGES: "A40U G30U"
  self-cleavage: 0.03
- CHANGES: "C31U U43C"
  self-cleavage: 0.08
- CHANGES: "C52G G50A"
  self-cleavage: 0.85
- CHANGES: "A16C G30A"
  self-cleavage: 0.04
- CHANGES: "G30C G44U"
  self-cleavage: 0.04
- CHANGES: "A36G G48U"
  self-cleavage: 0.12
- CHANGES: "G44C U24A"
  self-cleavage: 0.2
- CHANGES: "A39G C52U"
  self-cleavage: 1.04
- CHANGES: "A39U C20A"
  self-cleavage: 0.84
- CHANGES: "G35C U12G"
  self-cleavage: 0.07
- CHANGES: "C14U C20U"
  self-cleavage: 0.48
- CHANGES: "A10U A41U"
  self-cleavage: 0.07
- CHANGES: "A36G A39U"
  self-cleavage: 0.97
- CHANGES: "A41G G13C"
  self-cleavage: 0.03
